UniProt:P09874: recorded pIC50 for assorted compounds
Units for pIC50: none; it is -log10 of a concentration expressed in mol/L.

Short answer for `O=c1[nH]c([C@H]2CC[C@@H](N3CC=C(c4ccccc4)CC3)CC2)nc2ccccc12` : pIC50 was 5.80

The compound identified as `O=c1[nH]c(C2=C[C@@H](N3CCC(c4ccc(F)cc4)CC3)CC2)nc2c(Cl)cccc12` registered its pIC50 at 7.46

Lab note: O=c1[nH]c(C2CCC(N3CCC(c4ccccc4)CC3)C2)nc2ccccc12 (stereo in doubt; cis) gave pIC50 of 6.36

The value of pIC50 measured for the compound Cc1cccc2c(=O)[nH]c(C3=CC(N4CCC(c5ccc(F)cc5)CC4)CC3)nc12 (centres undefined) turned out to be 7.52

pIC50 reported for this compound O=c1[nH]c(C2=CC(N3CCN(c4ccc(F)cc4)CC3)CC2)nc2c(Cl)cccc12 (centres undefined) : 7.60

Record Cc1cccc2c(=O)[nH]c(C3=CC(N4CCN(c5ccc(Cl)cc5)CC4)CC3)nc12 (centres undefined) . Reported pIC50: 7.92

pIC50 for O=c1[nH]c(C2=CC(N3CC=C(c4ccc(F)cc4)CC3)CC2)nc2c(Cl)cccc12 (centres undefined) is 7.44

For reference, reported pIC50 for O=c1[nH]c(C2=CC(N3CC=C(c4ccccc4)CC3)CC2)nc2ccccc12 (racemic) stands at 7.80

Reported pIC50 ( `O=c1[nH]c(CCCN2CCC(c3ccccc3)CC2)nc2c(Cl)cccc12` ) = 6.99

====

- MEASUREMENT_TARGET: Poly [ADP-ribose] polymerase 1 (Homo sapiens)
- Sequence (P09874 whole entry): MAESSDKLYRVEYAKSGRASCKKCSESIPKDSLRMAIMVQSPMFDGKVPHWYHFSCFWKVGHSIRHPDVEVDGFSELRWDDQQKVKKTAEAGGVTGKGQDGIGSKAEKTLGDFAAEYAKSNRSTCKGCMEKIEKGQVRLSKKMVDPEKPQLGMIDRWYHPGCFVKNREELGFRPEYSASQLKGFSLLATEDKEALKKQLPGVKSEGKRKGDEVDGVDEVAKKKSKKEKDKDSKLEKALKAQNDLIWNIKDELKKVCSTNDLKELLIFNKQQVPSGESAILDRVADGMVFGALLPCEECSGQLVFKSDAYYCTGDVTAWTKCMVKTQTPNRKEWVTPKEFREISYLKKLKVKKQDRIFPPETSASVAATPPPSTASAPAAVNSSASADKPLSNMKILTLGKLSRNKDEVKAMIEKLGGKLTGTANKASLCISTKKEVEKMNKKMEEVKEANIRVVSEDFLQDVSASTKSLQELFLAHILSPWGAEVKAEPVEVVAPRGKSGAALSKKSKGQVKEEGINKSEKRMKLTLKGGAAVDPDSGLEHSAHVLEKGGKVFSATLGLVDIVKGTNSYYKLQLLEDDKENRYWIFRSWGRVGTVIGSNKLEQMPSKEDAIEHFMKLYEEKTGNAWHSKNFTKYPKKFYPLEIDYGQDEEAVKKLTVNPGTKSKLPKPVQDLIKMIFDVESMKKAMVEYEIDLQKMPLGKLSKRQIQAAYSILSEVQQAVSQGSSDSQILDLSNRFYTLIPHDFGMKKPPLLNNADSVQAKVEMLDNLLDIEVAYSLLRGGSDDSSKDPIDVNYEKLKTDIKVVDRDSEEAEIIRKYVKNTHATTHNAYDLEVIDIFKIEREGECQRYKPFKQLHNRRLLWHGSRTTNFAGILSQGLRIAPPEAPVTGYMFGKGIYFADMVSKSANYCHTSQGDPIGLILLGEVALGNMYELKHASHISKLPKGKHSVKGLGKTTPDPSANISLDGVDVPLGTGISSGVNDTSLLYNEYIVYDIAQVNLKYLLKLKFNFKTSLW
VALUE_TYPE: IC50
A complete answer gives the number followed by the unit.

Consider the following illustrative entries.
{"COMPOUND": "O=c1[nH]c(CCCN2CCC(c3ccc(F)cc3)CC2)nc2c(Cl)cccc12", "VALUE_TYPE": "IC50", "READOUT_VALUE": "47 nM"}
{"COMPOUND": "Cc1cccc2c(=O)[nH]c(CCCN3CC=C(c4ccc(F)cc4)CC3)nc12", "VALUE_TYPE": "IC50", "READOUT_VALUE": "8 nM"}

Please turn your attention to the following entry.
Record O=c1[nH]c(N2CCC(N3CC=C(c4ccccc4)CC3)C2)nc2ccccc12 (stereo not drawn) , field IC50: 300 nM

====

// CLint scaled at 1 h lookup, one value per entry
- EXPERIMENTAL_DETAILS: Metabolic stability assessed as Intrinsic clearance in mouse liver microsomes after 60 mins
Quick reminder: number only, in mL/min/kg, skip the unit.

So for O=c1[nH]c(C2=CC(N3CC=C(c4ccc(F)cc4)CC3)CC2)nc2c(Cl)cccc12 (centres undefined) , the logged CLint scaled at 1 h turned out to be 1330

For record `O=c1[nH]c(CCCN2CC=C(c3ccc(F)cc3)CC2)nc2c(Cl)cccc12` the listed CLint scaled at 1 h is 3910

CLint scaled at 1 h reading for `O=c1[nH]c(C2=C[C@@H](N3CCC(c4ccc(F)cc4)CC3)CC2)nc2c(Cl)cccc12` : 686

In plain terms, `O=c1[nH]c(C2=C[C@@H](N3CCC(c4ccccc4)CC3)CC2)nc2c(Cl)cccc12` has a documented CLint scaled at 1 h of 1160

====

- EXPERIMENTAL_DETAILS: Drug level in mouse brain at 32 mg/kg, po after 2.0 hrs
- Assay type: ADME, organism-based
- Design: dose 32 mg/kg, route oral
- PROTOCOL_CONDITIONS: read-out: Drug uptake
VALUE_TYPE: concentration at 2 h (ng/g)
Give the quantity in ng/g, number only.

Known concentration at 2 h results, listed for orientation:
{"COMPOUND": "O=c1[nH]c(C2=CC(N3CCN(c4ccc(Cl)cc4)CC3)CC2)nc2ccccc12 (stereo not drawn)", "VALUE_TYPE": "concentration at 2 h", "READOUT_VALUE": 2200}
{"COMPOUND": "O=c1[nH]c(C2=C[C@@H](N3CCC(c4ccccc4)CC3)CC2)nc2c(Cl)cccc12", "VALUE_TYPE": "concentration at 2 h", "READOUT_VALUE": 18100}

// next entry
Reported concentration at 2 h for O=c1[nH]c(C2=CC(N3CC=C(c4ccc(F)cc4)CC3)CC2)nc2c(Cl)cccc12 (stereo not drawn) was 900

====

- EXPERIMENTAL_DETAILS: Drug level in mouse brain at 32 mg/kg, po after 0.5 hr
- Format: ADME, organism-based
- Design: dose 32 mg/kg, route oral
- PROTOCOL_CONDITIONS: read-out: Drug uptake
Returns Yes if the recorded concentration at 0.5 h is greater than or equal to 8000 ng/g, and No otherwise.

{"MOLECULE": "O=c1[nH]c(C2=C[C@@H](N3CCC(c4ccc(F)cc4)CC3)CC2)nc2c(Cl)cccc12", "CLASS_LABEL": "No"}
{"MOLECULE": "O=c1[nH]c(C2=CC(N3CC=C(c4ccc(F)cc4)CC3)CC2)nc2c(Cl)cccc12 (stereo not drawn)", "CLASS_LABEL": "No"}
{"MOLECULE": "O=c1[nH]c(CCCN2CCC(c3ccccc3)CC2)nc2c(Cl)cccc12", "CLASS_LABEL": "Yes"}
{"MOLECULE": "O=c1[nH]c(C2=C[C@@H](N3CCC(c4ccccc4)CC3)CC2)nc2c(Cl)cccc12", "CLASS_LABEL": "Yes"}

Exercise: Evaluate `O=c1[nH]c(CCCN2CC=C(c3ccc(F)cc3)CC2)nc2c(Cl)cccc12` : concentration at 0.5 h at minimum 8000 ng/g?
Key: Yes

Exercise: Textbook exercise: given the entry O=c1[nH]c(C2=CC(N3CCN(c4ccc(Cl)cc4)CC3)CC2)nc2ccccc12 (stereo not drawn) , state whether its concentration at 0.5 h is greater than or equal to 8000 ng/g.
Key: No

Exercise: Could you please find out whether `O=c1[nH]c(C2=C[C@@H](N3CC=C(c4ccccc4)CC3)CC2)nc2c(Cl)cccc12` has concentration at 0.5 h that meets 8000 ng/g or exceeds it?
Key: No

====

In this section we review reported concentration at 2 h values for a set of compounds.
- EXPERIMENTAL_DETAILS: Drug level in mouse plasma at 32 mg/kg, po after 2.0 hrs
- Format: ADME, organism-based
- Design: dose 32 mg/kg, route oral
Response body: numeric value in ng/mL, unit text excluded.

For orientation, consider the following solved cases.
{"COMPOUND": "O=c1[nH]c(CCCN2CCC(c3ccccc3)CC2)nc2c(Cl)cccc12", "concentration at 2 h (ng/mL)": 9400}
{"COMPOUND": "O=c1[nH]c(C2=C[C@@H](N3CCC(c4ccccc4)CC3)CC2)nc2c(Cl)cccc12", "concentration at 2 h (ng/mL)": 4400}
{"COMPOUND": "O=c1[nH]c(C2=C[C@@H](N3CCC(c4ccc(F)cc4)CC3)CC2)nc2c(Cl)cccc12", "concentration at 2 h (ng/mL)": 11300}
{"COMPOUND": "O=c1[nH]c(CCCN2CC=C(c3ccccc3)CC2)nc2c(Cl)cccc12", "concentration at 2 h (ng/mL)": 1200}
{"COMPOUND": "O=c1[nH]c(C2=C[C@@H](N3CC=C(c4ccccc4)CC3)CC2)nc2c(Cl)cccc12", "concentration at 2 h (ng/mL)": 18100}

Recorded concentration at 2 h (compound `O=c1[nH]c(CCCN2CC=C(c3ccc(F)cc3)CC2)nc2c(Cl)cccc12` ): 1200

For reference, reported concentration at 2 h for O=c1[nH]c(C2=CC(N3CC=C(c4ccc(F)cc4)CC3)CC2)nc2c(Cl)cccc12 (stereo not drawn) stands at 17700

====

// reported pIC50 for each item listed
- MEASUREMENT_TARGET: Poly [ADP-ribose] polymerase 1 (Homo sapiens)
Kindly note that pIC50 refers to -log10 of the concentration in mol/L and answer with the value alone.

Reference set, count: 5
{"COMPOUND": "Cc1cccc2c(=O)[nH]c(C3=CC(N4CC=C(c5ccc(F)cc5)CC4)CC3)nc12 (centres undefined)", "pIC50": 7.60}
{"COMPOUND": "O=c1[nH]c(C2=CC(N3CCN(c4ccc(Cl)cc4)CC3)CC2)nc2ccccc12 (centres undefined)", "pIC50": 7.60}
{"COMPOUND": "O=c1[nH]c(CCCN2CC=C(c3ccc(F)cc3)CC2)nc2ccccc12", "pIC50": 7.80}
{"COMPOUND": "O=c1[nH]c(C2=C[C@@H](N3CCC(c4ccccc4)CC3)CC2)nc2c(Cl)cccc12", "pIC50": 8.06}
{"COMPOUND": "O=c1[nH]c(N2CC(N3CC=C(c4ccccc4)CC3)C2)nc2ccccc12", "pIC50": 6.30}

Lab note: measured pIC50 of O=c1[nH]c(C2CCCC(N3CC=C(c4ccccc4)CC3)C2)nc2ccccc12 (racemic) was 5.74

Kindly note the recorded pIC50 for O=c1[nH]c(C2=CC(N3CC=C(c4ccc(F)cc4)CC3)CC2)nc2ccccc12 (centres undefined) , which is 7.74

The measured pIC50 associated with `O=c1[nH]c(CCCN2CC=C(c3ccc(Cl)cc3)CC2)nc2ccccc12` reads 8.05

Recorded result, `O=c1[nH]c(C2=C[C@@H](N3CC=C(c4ccccc4)CC3)CC2)nc2c(Cl)cccc12` , pIC50: 7.82
